- Tested target: ATX (Homo sapiens)
- Construct: conditioned serum-free medium (CCM) from MDA-MB-435 cells as the source of ATX; endogenous in cells; host or cells: MDA-MB-435 cells (about 10x concentrated conditioned serum-free medium)
- Test method notes: ATX inhibition assay (FS-3 substrate)
- Format: biochemical
- Test settings: preliminary screen; FS-3 hydrolysis at one hour, normalized to vehicle control, mean±S.D.; same values given at 10 μM in Table 5
- Experimental: ATX inhibition was assayed using the substrate FS-3 (Echelon Biosciences, Inc., Salt Lake City, Utah, USA). […] All assays were performed in 96-well plates with data read at 1 minute intervals by a Synergy2 system (BioTek, Winooski, Vt.). The fluorescence produced upon the hydrolysis of FS-3 was monitored using an excitation wavelength of 485 nm and an emission wavelength of 528 nm at 37° C. […] All readings were normalized to vehicle control after subtraction of fluorescence in the absence of CCM. […]
Measured metric: % Response (%)
Write the value in % as a bare number.

A selection of reference data follows.
COc1cc(N=Nc2cc(S(=O)(=O)[O-])cc3cc(S(=O)(=O)[O-])cc(O)c23)c(C)cc1N=Nc1c(S(=O)(=O)[O-])cc2cc(Nc3ccccc3)ccc2c1O.[Na+].[Na+].[Na+] [compound 47755] : 47
CC(=O)Nc1ccc(N=Nc2c(S(=O)(=O)O)cc3cc(NC(=O)Nc4ccc5c(O)c(N=Nc6ccccc6)c(S(=O)(=O)O)cc5c4)ccc3c2O)cc1.[Na+] [compound 47762] : 83

Moving on to another molecule below.
Query: // query % Response value for entry CCCCCCCCCCCCCCCCOc1ccc(S(=O)(=O)N/N=c2/sc3ccc(S(=O)(=O)O)cc3n2C)cc1C(=O)O [compound 270069]
Result: 97

* * *

- Tested target: ATX (Homo sapiens, UniProt Q13822)
- Construct: conditioned serum-free medium (CCM) from MDA-MB-435 cells as the source of ATX; endogenous in cells; host or cells: MDA-MB-435 cells (about 10x concentrated conditioned serum-free medium)
- Test method notes: ATX inhibition assay (FS-3 substrate)
- Format: biochemical
- Test settings: preliminary screen; FS-3 hydrolysis at one hour, normalized to vehicle control, mean±S.D.; same values given at 10 μM in Table 5
Measured metric: % Response (%)
Express the result in % but write the number alone.

Nc1c(N=Nc2ccc([N+](=O)[O-])cc2)c(S(=O)(=O)O)cc2cc(S(=O)(=O)O)c(N=Nc3ccc(Sc4ccc(N=Nc5ccc(O)cc5)cc4)cc3)c(O)c12.[Na+] [compound 79723] : 83
O=C(/C=C/c1ccc(O)c(O)c1)NCC(=O)NC(Cc1ccccc1)C(=O)O (centres unmarked) [compound 332542] : 96
O=C(N/N=C/c1ccc(O)c(S(=O)(=O)O)c1)C(=O)N/N=C/c1ccc(O)c(S(=O)(=O)O)c1.[Na+] [compound 55736] : 95
O=C(Nc1ccc2c(O)c(N=Nc3ccccc3)c(S(=O)(=O)O)cc2c1)Nc1ccc2c(O)c(N=Nc3ccc4cc(S(=O)(=O)O)ccc4c3)c(S(=O)(=O)O)cc2c1.[H-].[Na+] [compound 65573] : 39

Query: Suppose we examine the compound Cc1ccc(N=Nc2c(S(=O)(=O)[O-])cc3cc(NC(=O)Nc4ccc5c(O)c(N=Nc6ccc7cc(S(=O)(=O)[O-])ccc7c6)c(S(=O)(=O)[O-])cc5c4)ccc3c2O)c(C)c1.[Na+].[Na+].[Na+] [compound 65575] ; what % Response value has been reported?
Result: 33
